# Tested on: CP185
# testDetails: qHTS profiling for inhibitors of Plasmodium falciparum proliferation (AID 504749); further: nearly all actives have a fitted effect of over 60% in size
# conditionContext: P. falciparum in erythrocytes, SYBR Green DNA, 72 h; series mostly up to 28.7 µM
Results filed as inconclusive are left out. Calls of active or inactive are those of the source. The call rests on the fitted dose curve; in most records, active means well fitted inhibition curve with a large enough effect; inconclusive means small, poorly fitted or top-dose-only effect; inactive means flat fitted curve, though single readings scatter.
Response enum: active, inactive

Lookup: Kindly provide the recorded test outcome for the following molecule: CCCN(CCC)S(=O)(=O)c1ccc(C(=O)O)cc1
Found: inactive

Lookup: Kindly provide the recorded test outcome for the following molecule: CCN(CC)CCOc1ccc2c(c1)C(=O)c1cc(OCCN(CC)CC)ccc1-2
Found: active

Lookup: Kindly provide the recorded test outcome for the following molecule: O=C(Nc1ccc([N+](=O)[O-])cc1)Nc1ccc([N+](=O)[O-])cc1
Found: inactive

Lookup: Kindly provide the recorded test outcome for the following molecule: Cc1ccc2c(Br)cc(Br)c(O)c2n1
Found: active

Lookup: Kindly provide the recorded test outcome for the following molecule: Clc1cccc(C(c2ccc3nc[nH]c3c2)n2ccnc2)c1 (configuration not stated)
Found: inactive

Lookup: Kindly provide the recorded test outcome for the following molecule: Cc1ccc(S(=O)(=O)NC(=O)NC2CCCC2)cc1
Found: inactive

Lookup: Kindly provide the recorded test outcome for the following molecule: CCOC(=O)Nc1ccc2c(c1)N(C(=O)CCN1CCOCC1)c1ccccc1S2
Found: inactive

Lookup: Kindly provide the recorded test outcome for the following molecule: NC(=O)n1c(O)c(C(=O)c2cccs2)c2cc(Cl)ccc21
Found: inactive

Lookup: Kindly provide the recorded test outcome for the following molecule: Cc1cc2c(OCC(CNC(C)(C)C)OC(=O)c3ccccc3)cccc2[nH]1 (configuration not stated)
Found: inactive

Lookup: Kindly provide the recorded test outcome for the following molecule: CC(=O)Nc1ccc(CC(=O)O)cc1
Found: inactive

Lookup: Kindly provide the recorded test outcome for the following molecule: COc1ccc2c(c1)c1c3n2CCN(C)C3=NCC1
Found: inactive

Lookup: Kindly provide the recorded test outcome for the following molecule: COc1ccc(-c2cc(C(F)F)nn2-c2ccc(S(N)(=O)=O)cc2)cc1F
Found: inactive

Each recorded value in this set is attributed to PubChem BioAssay (NCATS).
